Listing of entries alongside the reported growth.
System: MDA-MB-231 breast
Experiment: NCI-60 one-dose screen, 48 h (100 = growth as untreated, 0 = no growth, -100 = all killed)
Settings: 10 µM unless noted
About 83,000 compounds went through this panel and 20% of them were active in at least one assay; those are over-represented in the sample as a whole.
Quick note: give the figure in %, leave out the unit.

O=[N+]([O-])c1cc(F)c2cccnc2c1O | 99.5
CCCCN(CCCC)CCC(=O)c1ccc(OC)c2ccccc12 | 106
O=C1Nc2ccccc2/C1=C/c1c[nH]c2ccccc12 | 71.7

# growth measured on MDA-MB-231 breast for item O=C(O)c1ccccc1N=Cc1ccccc1 = 109

# growth measured on MDA-MB-231 breast for item COc1cc(-c2n/c(=C\c3c(O)[nH]c4cc(Cl)ccc34)cc3c2=Nc2ccccc2-3)cc(OC)c1OC = 53.1

----------
Test system: HT29 colon
Assay: NCI-60 one-dose screen, 48 h (100 = growth as untreated, 0 = no growth, -100 = all killed)
Conditions: 10 µM unless noted
The panel holds about 83,000 compounds, 20% with a hit somewhere; the sample as a whole holds those more often.
property: growth (%)
Quick note: give the figure in %, leave out the unit.

CCOC(=O)c1ccc(NCCC(=O)O)cc1 | 96.8

Measured growth, CCCCNCC(O)c1cc(-c2ccc(C(F)(F)F)cc2)nc(-c2ccc(C(F)(F)F)cc2)c1 (centres undefined) : -77

Measured growth, CC(C)OC(=O)c1ccc([N+](=O)[O-])cc1 : 102

Measured growth, C=CC[C@]1(O)CC[C@H]2[C@@H]3CCc4cc(O)ccc4[C@H]3CC[C@@]21C : 91.2

----------
Listing of entries alongside the reported growth.
System: K-562 leukemia
Test: NCI-60 one-dose screen, 48 h (100 = growth as untreated, 0 = no growth, -100 = all killed)
Details: 10 µM unless noted
The panel holds about 83,000 compounds, 20% with a hit somewhere; the sample as a whole holds those more often.
Quick note: give the figure in %, leave out the unit.

CCCOC(=O)C1c2cc3c(cc2CC(C)C1C(=O)OCCC)OCO3 (configuration not stated) | 99.6

Turning to the following compound.
Measured growth, Cc1cc(Cl)c2ccc(N(C)C)cc2n1 : 88.7

----------
Listing of entries alongside the reported growth.
Tested on: SF-295 CNS
Assay: NCI-60 one-dose screen, 48 h (100 = growth as untreated, 0 = no growth, -100 = all killed)
Settings: 10 µM unless noted
About 83,000 compounds went through this panel and 20% of them were active in at least one assay; those are over-represented in the sample as a whole.
Quick note: give the figure in %, leave out the unit.

As a guide, the following entries are already answered.
Cn1c(=O)c2[nH]c(Cc3ccc4c(c3)OCO4)nc2n(C)c1=O | 104
CN1CCN(Cc2ccc(NC(=O)c3cccc(C#Cc4cnc(N)c5ncccc45)c3F)cc2C(F)(F)F)CC1 | 85.3
O=C(Nc1ccc2[nH]c3ccccc3c2c1)c1ccccc1Cl | 10.7
Clc1ccc(Nc2ncnc3c2sc2ncccc23)c(Cl)c1 | 17.9
COc1cc2nccc(Oc3ccc(NC(=O)C4(C(=O)Nc5ccc(F)cc5)CC4)cc3)c2cc1Oc1ccc(N)cn1 | 0.157

# growth measured on SF-295 CNS for item COc1ccc2[nH]c(C(=O)OCc3ccc4cccc(O)c4n3)cc2c1 = 73.7

# growth measured on SF-295 CNS for item FC(F)(F)c1ccc(/C=N/Nc2nnc3n2N=C(c2ccc(Cl)cc2)CS3)cc1 = 47.6

# growth measured on SF-295 CNS for item CN1CCN(Cc2ccc(NC(=O)c3cnc(F)c(C#Cc4cnc(N)c5ncccc45)c3)cc2C(F)(F)F)CC1 = 48.2

These entries and their values trace back to PubChem BioAssay (NCI).
